- assayed-system: Atg7 (Homo sapiens)
- Sequence (O95352 whole entry, species assumed): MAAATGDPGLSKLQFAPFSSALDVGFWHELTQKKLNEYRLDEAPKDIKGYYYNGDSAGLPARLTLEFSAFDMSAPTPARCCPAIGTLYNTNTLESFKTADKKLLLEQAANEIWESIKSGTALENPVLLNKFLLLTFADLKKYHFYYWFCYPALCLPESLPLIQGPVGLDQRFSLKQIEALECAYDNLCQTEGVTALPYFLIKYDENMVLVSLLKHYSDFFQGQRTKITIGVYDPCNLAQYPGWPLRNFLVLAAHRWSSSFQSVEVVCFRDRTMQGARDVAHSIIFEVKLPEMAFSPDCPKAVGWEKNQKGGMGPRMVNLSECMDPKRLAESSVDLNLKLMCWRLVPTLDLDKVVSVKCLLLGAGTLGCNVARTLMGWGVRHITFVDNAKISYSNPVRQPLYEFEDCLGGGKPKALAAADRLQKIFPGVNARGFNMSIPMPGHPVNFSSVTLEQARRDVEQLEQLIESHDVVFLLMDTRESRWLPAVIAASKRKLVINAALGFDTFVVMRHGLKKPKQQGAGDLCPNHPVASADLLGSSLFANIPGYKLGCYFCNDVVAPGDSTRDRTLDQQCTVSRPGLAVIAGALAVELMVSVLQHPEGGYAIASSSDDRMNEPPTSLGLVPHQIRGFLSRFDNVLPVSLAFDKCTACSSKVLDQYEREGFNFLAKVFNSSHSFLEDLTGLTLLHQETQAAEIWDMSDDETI
- measurement-notes: Atg7 activating enzyme (E1) inhibition
- Assay type: biochemical
- condition-label: 25 uM compound, 60 min preincubation; read-out: Atg7 percent inhibition of adduct formation
measured-quantity: inhibition at 25 µM

Past entries and their recorded results:
C=CC(=O)N1Cc2sc(Cl)c(F)c2[C@@H](c2ccccc2C)C1 [Compound 150]: < 1%
C=CC(=O)N1Cc2sc(C)cc2[C@@H](c2ccccc2C)C1 [Compound 89]: < 1%
C=CC(=O)N1Cc2cc(Cl)sc2[C@@H](c2ccccc2C)C1 [Compound 127]: < 1%
O=C(/C=C/C(F)(F)F)N1Cc2sc(Cl)cc2[C@@H](c2ccccc2F)C1 [Compound 120]: < 1%

Enter reported inhibition at 25 µM observed with Atg7 (Homo sapiens) for C=CC(=O)N1CCc2cc(Br)ccc21 [Compound 4]
< 1%

Source: patent US12398151B2
